This collection of values is drawn from ChEMBL document CHEMBL3272249.

# Tested on: Canis familiaris
# Test Protocol: Cardiotoxicity in spontaneously respiring dog assessed as degree of increase in heart rate at 20 to 100 mg/kg, iv relative to control
# Type: toxicity, organism-based, Canis lupus familiaris
# Set-up: dose 20-100 mg/kg, route intravenous
# Condition Notes: in vivo
Endpoint Name: Activity
State the value, then name its unit.

[Q] Give recorded Activity. CC(C)(C)NC[C@H](O)c1ccc(OC(=O)C(C)(C)C)c(OC(=O)C(C)(C)C)c1.Cl
[A] 20 beats/min

* * *

# System: Canis familiaris
# Test Protocol: Cardiotoxicity in spontaneously respiring dog assessed as degree of increase in heart rate at 50 to 100 mg/kg, iv relative to control
# Assay type: toxicity, organism-based, Canis lupus familiaris
# Parameters: dose 50-100 mg/kg, route intravenous
# Condition Notes: in vivo
Endpoint Name: Activity (beats/min)
Enter your answer as a number in beats/min; do not include the unit.

[Q] Fill in: Activity on Canis familiaris, entry CS(=O)(=O)O.Cc1cccc(C(=O)Oc2ccc([C@@H](O)CNC(C)(C)C)cc2O)c1
[A] 40
